Entry source: ChEMBL document CHEMBL5442219

Target: 5-hydroxytryptamine receptor 7 (Homo sapiens) (UniProt P34969)
Sequence (P34969 whole entry): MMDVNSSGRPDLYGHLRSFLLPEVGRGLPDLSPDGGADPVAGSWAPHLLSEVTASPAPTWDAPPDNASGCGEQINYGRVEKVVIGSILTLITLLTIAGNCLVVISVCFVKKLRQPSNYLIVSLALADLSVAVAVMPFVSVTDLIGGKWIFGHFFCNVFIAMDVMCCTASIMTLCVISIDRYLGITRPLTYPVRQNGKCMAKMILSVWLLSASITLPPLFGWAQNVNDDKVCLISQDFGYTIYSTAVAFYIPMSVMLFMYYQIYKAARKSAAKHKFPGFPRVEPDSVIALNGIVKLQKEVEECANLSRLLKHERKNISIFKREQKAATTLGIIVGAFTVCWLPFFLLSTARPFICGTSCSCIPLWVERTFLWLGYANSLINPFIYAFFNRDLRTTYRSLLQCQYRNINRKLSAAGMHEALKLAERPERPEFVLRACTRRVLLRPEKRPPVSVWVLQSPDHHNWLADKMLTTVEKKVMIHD
Details: Compound concentration 10 µM
Description: PDSP Primary Binding target: HTR7 - Compounds are tested at 10 uM concentration, plate are incubated at room temperature in the dark for 90 minutes. Reaction are stopped by vacuum filtration onto 0.3% polyethyleneimine soaked filter mats using Filtermate harvester. Scintilation cocktail is then melted onto microwave-dried filters on a hot plate and the radio activity is counted in Microbia counter.
// label = fulfilled if inhibition is not less than 30%, otherwise not fulfilled

Known results for molecules:
molecule=Cc1nc(-c2ccc(-c3ccc(C(=O)N4CCc5cc6c(cc54)C4(CCN(C)CC4)CO6)cc3)c(C)c2)no1 system_tested="5-hydroxytryptamine receptor 7 (Homo sapiens) (UniProt P34969)" group_label="not fulfilled"
molecule=Cc1csc(NC(=O)c2cc(F)cc(Oc3cncnc3)c2)n1 system_tested="5-hydroxytryptamine receptor 7 (Homo sapiens) (UniProt P34969)" group_label="not fulfilled"
molecule=CN1CC(=O)N=C1NC(=O)Nc1cccc(Cl)c1 system_tested="5-hydroxytryptamine receptor 7 (Homo sapiens) (UniProt P34969)" group_label="not fulfilled"
molecule=CN1CCN(c2ccc(Nc3c4ccccc4nc4ccccc34)cc2)CC1 system_tested="5-hydroxytryptamine receptor 7 (Homo sapiens) (UniProt P34969)" group_label=fulfilled
molecule=COc1ccc(/C=C/CCCCOc2ccc(C(=O)c3cccc(C(=O)O)c3)cc2CCC(=O)O)cc1 system_tested="5-hydroxytryptamine receptor 7 (Homo sapiens) (UniProt P34969)" group_label="not fulfilled"

Exam item: decide whether the reported inhibition for "CN1C[C@H](C(=O)N[C@]2(C)O[C@@]3(O)[C@@H]4CCCN4C(=O)[C@H](Cc4ccccc4)N3C2=O)C[C@@H]2c3cccc4[nH]cc(c34)C[C@H]21" is at least 30%. fulfilled

Same again, this time with "Cc1cc(NC(=O)NCCN2CCC(O)(Cc3ccccc3)CC2)c2ccccc2n1" fulfilled

Now the molecule "CC1(C)SSC(C)(C)[C@@H](NC(=O)[C@@H](N)Cc2ccc(O)cc2)C(=O)NCC(=O)N[C@@H](Cc2ccccc2)C(=O)N[C@H]1C(=O)O" not fulfilled

And then "CCCCN(CCCC)C(=O)CN1C[C@@H](c2ccc3c(c2)OCO3)[C@H](C(=O)O)[C@H]1c1ccc(OC)cc1" , what is it? not fulfilled

Now this one: "Cc1nc(C#Cc2ccnc(Cl)c2)c(C)n1-c1ccc(OC(F)(F)F)cc1" not fulfilled

Input "COc1ccnc(N2CCC3(CCCN(Cc4c[nH]c5ccccc45)C3=O)CC2)n1" not fulfilled

Please give the result for "C[C@@H](N)Cc1c[nH]cn1" too. not fulfilled

Again, but for CN1CCCC(n2nc(Cc3ccc(Cl)cc3)c3ccccc3c2=O)CC1 (configuration not stated) fulfilled

Here is the next molecule: "NC(=O)[C@@H]1CCCN1C(=O)[C@H](Cc1c[nH]cn1)NC(=O)[C@@H]1CCC(=O)N1" not fulfilled

Ok, now "CCC(=O)NCC[C@@H]1CCc2ccc3c(c21)CCO3" not fulfilled

Moving on to "Cc1nc2sccn2c(=O)c1CCN1CCC(=C(c2ccc(F)cc2)c2ccc(F)cc2)CC1" fulfilled

Then this molecule: "Clc1cccc(COc2cncc(N3CCNCC3)n2)c1" fulfilled

Follow-up item: "O=c1ccc2ccc(OCCCCN3CCN(c4cccc5sccc45)CC3)cc2[nH]1" fulfilled

And what about the molecule OCc1cc(C(O)CNCCCCCCOCCCCc2ccccc2)ccc1O (configuration not stated) ? fulfilled

Can you handle "CN1CCC(=C2c3ccccc3CC(=O)c3sccc32)CC1" next? fulfilled

Also "CN1CCC(C(=O)c2cccc(NC(=O)c3c(F)cc(F)cc3F)n2)CC1" , if possible. fulfilled

"NC[C@@H]1O[C@H](C23CC4CC(CC(C4)C2)C3)Cc2c1ccc(O)c2O" , same question. not fulfilled

###

Biological target: Kappa-type opioid receptor (Homo sapiens) (UniProt P41145)
Sequence (P41145 whole entry): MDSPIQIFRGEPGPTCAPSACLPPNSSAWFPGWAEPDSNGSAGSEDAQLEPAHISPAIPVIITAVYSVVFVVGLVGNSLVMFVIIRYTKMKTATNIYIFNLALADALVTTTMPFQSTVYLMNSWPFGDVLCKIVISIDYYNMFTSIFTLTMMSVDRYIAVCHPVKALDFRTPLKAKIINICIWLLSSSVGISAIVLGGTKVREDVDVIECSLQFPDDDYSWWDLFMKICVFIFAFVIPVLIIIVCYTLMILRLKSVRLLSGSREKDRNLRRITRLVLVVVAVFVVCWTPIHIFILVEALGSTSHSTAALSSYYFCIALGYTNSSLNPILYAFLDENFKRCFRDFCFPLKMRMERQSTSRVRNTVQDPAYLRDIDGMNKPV
Conditions: Compound concentration 10 µM
Description: PDSP Primary Binding target: OPRK1 - Compounds are tested at 10 uM concentration, plate are incubated at room temperature in the dark for 90 minutes. Reaction are stopped by vacuum filtration onto 0.3% polyethyleneimine soaked filter mats using Filtermate harvester. Scintilation cocktail is then melted onto microwave-dried filters on a hot plate and the radio activity is counted in Microbia counter.
If the reported inhibition equals or exceeds 20%, assign TRUE. If not, assign FALSE.

Observe how each entry below is paired with its result.
molecule=COC(=O)[C@H]1[C@H]2C[C@H]3c4[nH]c5ccccc5c4CCN3C[C@H]2CC[C@@H]1O group_label=FALSE
molecule=C/C(=N\NC(=O)[C@@H]1C(=O)NC[C@H]1c1ccccc1)c1cccc(Br)c1 group_label=FALSE
molecule=CN1CCC(C(=O)c2cccc(NC(=O)c3c(F)cc(F)cc3F)n2)CC1 group_label=TRUE
molecule="CC(C)NCC(O)COc1cccc2ccccc12 (centres undefined)" group_label=FALSE
molecule=CCC[C@H](Oc1cc(C)c(-n2cc(C(F)(F)F)cn2)c(C)c1)c1ccc(C(=O)NCCC(=O)O)cc1 group_label=TRUE

// inclusive: inhibition at least 20%? input: "O=c1ccn([C@@H]2O[C@H](COP(=O)(O)OP(=O)(O)O)[C@@H](O)[C@H]2O)c(=O)[nH]1" FALSE

Query "CNc1nc(NCc2ccc(NS(C)(=O)=O)cc2Cl)cc(-c2ccccn2)n1" next TRUE

How about "Cc1cc([C@@H](C)Nc2cccc(-c3cc(C)c(C(=O)N[C@@H](C)C(=O)O)c(C)c3)c2)ccc1Cl" ? FALSE

Try this molecule next: "Cc1csc(NC(=O)c2cc(F)cc(Oc3cncnc3)c2)n1" FALSE

Try the molecule "CC(C)[C@H](CO)Nc1nc(Nc2cccc(Cl)c2)c2ncn(C(C)C)c2n1" TRUE

###

Target: D(1B) dopamine receptor (Homo sapiens)
Conditions: Compound concentration 10 µM; call rule not given here
Permitted responses: active, inactive

Worked examples, 9 molecules total:
molecule=c1cc(CN2CCCNCCNCCCNCC2)ccc1CN1CCCNCCNCCCNCC1 system_tested="D(1B) dopamine receptor (Homo sapiens)" group_label=inactive
molecule=CN1C[C@H](C(=O)N[C@]2(C)O[C@@]3(O)[C@@H]4CCCN4C(=O)[C@H](Cc4ccccc4)N3C2=O)C[C@@H]2c3cccc4[nH]cc(c34)C[C@H]21 system_tested="D(1B) dopamine receptor (Homo sapiens)" group_label=active
molecule=CCCn1c(=O)c2[nH]c(-c3cnn(Cc4cccc(C(F)(F)F)c4)c3)nc2n(CC)c1=O system_tested="D(1B) dopamine receptor (Homo sapiens)" group_label=inactive
molecule=N#Cc1c[nH]c2c(C(=O)N3CCN(CCc4ccc(F)cc4)CC3)cccc12 system_tested="D(1B) dopamine receptor (Homo sapiens)" group_label=inactive
molecule=CC1CCN(CC[C@H]2CCCN2S(=O)(=O)c2cccc(O)c2)CC1 system_tested="D(1B) dopamine receptor (Homo sapiens)" group_label=active
molecule=CN[C@@H]1CCc2[nH]c3ccc(C(N)=O)cc3c2C1 system_tested="D(1B) dopamine receptor (Homo sapiens)" group_label=inactive
molecule=O=c1ccn([C@@H]2O[C@H](COP(=O)(O)OP(=O)(O)O)[C@@H](O)[C@H]2O)c(=O)[nH]1 system_tested="D(1B) dopamine receptor (Homo sapiens)" group_label=inactive
molecule=N=C(N)SCCc1c[nH]cn1 system_tested="D(1B) dopamine receptor (Homo sapiens)" group_label=inactive
molecule="CC(C)(C(=O)O)c1ccc(C(O)CCCN2CCC(C(O)(c3ccccc3)c3ccccc3)CC2)cc1 (stereo not given)" system_tested="D(1B) dopamine receptor (Homo sapiens)" group_label=inactive

What is the recorded call for this molecule in the test? "CCc1cc2c(cc1CC)CC(NC[C@H](O)c1ccc(O)c3[nH]c(=O)ccc13)C2" inactive

###

Reported inhibition values for the following compounds.
Biological target: 5-hydroxytryptamine receptor 5A (Homo sapiens) (UniProt P47898)
Sequence (P47898 whole entry): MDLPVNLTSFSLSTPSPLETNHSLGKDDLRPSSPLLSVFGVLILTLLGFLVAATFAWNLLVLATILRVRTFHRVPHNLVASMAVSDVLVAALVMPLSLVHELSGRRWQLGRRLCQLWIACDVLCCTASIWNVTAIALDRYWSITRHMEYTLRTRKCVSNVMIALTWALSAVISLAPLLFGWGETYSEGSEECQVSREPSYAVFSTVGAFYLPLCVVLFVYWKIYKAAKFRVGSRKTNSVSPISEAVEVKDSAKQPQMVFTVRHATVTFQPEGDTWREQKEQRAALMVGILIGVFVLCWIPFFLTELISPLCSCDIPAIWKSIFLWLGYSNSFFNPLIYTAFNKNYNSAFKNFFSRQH
Details: Compound concentration 10 µM
Description: PDSP Primary Binding target: HTR5A - Compounds are tested at 10 uM concentration, plate are incubated at room temperature in the dark for 90 minutes. Reaction are stopped by vacuum filtration onto 0.3% polyethyleneimine soaked filter mats using Filtermate harvester. Scintilation cocktail is then melted onto microwave-dried filters on a hot plate and the radio activity is counted in Microbia counter.
Kindly answer with a numeric value in %, unit omitted.

Requested field: inhibition. Item: "C[C@@H](NCCCc1cccc(C(F)(F)F)c1)c1cccc2ccccc12" 81.9

// same read-out, input: "CCCSc1nc(N[C@@H]2C[C@H]2c2ccc(F)c(F)c2)c2nnn([C@@H]3C[C@H](OCCO)[C@@H](O)[C@H]3O)c2n1" 33.2

Could you do the same for Cc1ccccc1C(=O)Nc1ccc(C(=O)N2CCCC(O)c3cc(Cl)ccc32)c(C)c1 (configuration not stated) , please? 11.7

Another compound to check: "Cc1ccc2c(c1)c1c(n2CCc2ccc(C)nc2)CCN(C)C1" 94.8

Query "NC(=O)[C@@H]1CCCN1C(=O)[C@H](Cc1c[nH]cn1)NC(=O)[C@@H]1CCC(=O)N1" next 5.27

And then "CS(=O)(=O)NC[C@H]1CC[C@H](Nc2nc3c(s2)CCSc2ccccc2-3)CC1" , what is it? 64.7

###

Target: D(4) dopamine receptor (Homo sapiens)
Conditions: Compound concentration 10 µM; call rule not given here
Respond with a class label; see active, inactive

As a guide, the following entries are already answered.
molecule=C[C@H](Cc1cc2c(c(C(N)=O)c1)N(CCCO)CC2)NCCOc1ccccc1OCC(F)(F)F group_label=active
molecule=Cc1c(C2=CCN(C(=O)N(C)C(C)C)CC2)nnn1-c1cccnc1F group_label=inactive
molecule=O=C(Cc1ccc(Cl)c(Cl)c1)N1CCCC[C@H]1CN1CCCC1 group_label=active
molecule="CC(C)NCC(O)COc1cccc2ccccc12 (stereo not drawn)" group_label=inactive
molecule=C/C(=N\NC(=O)[C@@H]1C(=O)NC[C@H]1c1ccccc1)c1cccc(Br)c1 group_label=inactive
molecule=FC(F)(F)c1cccc(-c2noc(-c3cc(-c4ccccc4)c(C(F)(F)F)s3)n2)c1 group_label=inactive
molecule=C[C@H](NC[C@H](O)CP(=O)(O)CC1CCCCC1)c1ccc(Cl)c(Cl)c1 group_label=inactive

Per the records of this test, what outcome belongs to "CN(C)S(=O)(=O)c1ccc(NC(=S)N2CCC(C(O)(c3ccccc3)c3ccccc3)CC2)cc1" ? inactive
